# Tested on: lung cancer (A549) cells
# test_name: MTT dose response cytotoxicity, A549
# Type: cell-based
# run_parameters: Homo sapiens, 48 h
endpoint_name: IC50 (µM)
Give just the numeric value; µM need not be written.

// known answers, use as guide
| compound | IC50, µM |
| --- | --- |
| COc1ccc(-c2[nH]c3c(NC(C)=O)cc(Br)cc3c2C(=O)C(F)(F)F)cc1 | 3.26 |
| CC(=O)Nc1cc(Br)cc2c(C(=O)C(F)(F)F)c(-c3ccccc3)[nH]c12 | 9.94 |
| CC(=O)Nc1cc(Br)cc2c(C(=O)C(F)(F)F)c(-c3cccc(Cl)c3)[nH]c12 | 2.72 |
| CC(=O)Nc1cc(Br)cc2cc(-c3ccc(F)cc3)[nH]c12 | 116 |
| CC(=O)Nc1cc(Br)cc2cc(-c3cccc(Cl)c3)[nH]c12 | 155 |
| COc1ccc(-c2cc3cc(Br)cc(NC(C)=O)c3[nH]2)cc1 | 147 |
| CC(=O)Nc1cc(Br)cc2c(C(=O)C(F)(F)F)c(-c3ccc(F)cc3)[nH]c12 | 5.03 |

Lookup result for N[C@@H](Cc1ccc(N(CCCl)CCCl)cc1)C(=O)O [Melphalan, reference compound] ; measured IC50: 30.7

---

# Tested on: HeLa cancer cells
# test_name: Two-concentration cytotoxicity screen (Hoechst 33342/PI imaging), HeLa
# Format: cell-based
# run_parameters: 10 μM and 100 μM, 48 h
endpoint_name: Cytotoxicity (percentage live cells compared to untreated control)

| structure_as_smiles | data_value |
| --- | --- |
| CC(=O)Nc1cc(Br)cc2cc(-c3ccc(F)cc3)[nH]c12 | modest cytotoxicity |
| COc1ccc(-c2cc3cc(Br)cc(NC(C)=O)c3[nH]2)cc1 | modest cytotoxicity |
| CC(=O)Nc1cc(Br)cc2cc(-c3cccc(Cl)c3)[nH]c12 | modest cytotoxicity |

---

endpoint_name: melting point

// known answers, use as guide
| compound | data_value |
| --- | --- |
| CC(=O)c1cc(Br)cc2cc(-c3cccc(Cl)c3)[nH]c12 [Compound 2c] | 140 to 143 °C |
| CC(=O)c1cc(Br)cc2cc(-c3ccccc3)[nH]c12 [Compound 2a] | 139 to 142 °C |

We next turn to a different compound, shown below.
Lookup result for CC(=O)c1cc(Br)cc2cc(-c3ccc(F)cc3)[nH]c12 [Compound 2b] ; measured melting point: 171 to 173 °C

---

# Tested on: A549 cancer cells
# test_name: Two-concentration cytotoxicity screen (Hoechst 33342/PI imaging), A549
# Format: cell-based
# run_parameters: 10 μM and 100 μM, 48 h
endpoint_name: Cytotoxicity (percentage live cells compared to untreated control)

| structure_as_smiles | data_value |
| --- | --- |
| COc1ccc(-c2cc3cc(Br)cc(NC(C)=O)c3[nH]2)cc1 | modest cytotoxicity |
| CC(=O)Nc1cc(Br)cc2cc(-c3ccc(F)cc3)[nH]c12 | modest cytotoxicity |
| CC(=O)Nc1cc(Br)cc2cc(-c3cccc(Cl)c3)[nH]c12 | modest cytotoxicity |

---

endpoint_name: melting point

// known answers, use as guide
| structure_as_smiles | melting point |
| --- | --- |
| COc1ccc(-c2[nH]c3c(NC(C)=O)cc(Br)cc3c2C(=O)C(F)(F)F)cc1 | 179 to 182 °C |
| CC(=O)Nc1cc(Br)cc2c(C(=O)C(F)(F)F)c(-c3ccccc3)[nH]c12 | 141 to 144 °C |
| CC(=O)Nc1cc(Br)cc2c(C(=O)C(F)(F)F)c(-c3ccc(F)cc3)[nH]c12 | 195 to 197 °C |

Lookup result for CC(=O)c1cc(Br)cc2c(C(=O)C(F)(F)F)c(-c3ccccc3)[nH]c12 ; measured melting point: 175 to 176 °C

Lookup result for CC(=O)c1cc(Br)cc2c(C(=O)C(F)(F)F)c(-c3ccc(F)cc3)[nH]c12 ; measured melting point: 168 to 171 °C
